Measured cell viability values are reported for all entries that follow.
# Test system: P12-Ichikawa
# ASSAY: cell viability relative to DMSO control; higher = less cytotoxic
# CONDITIONS: RPMI 5 mM glucose + 10% FBS; 48 h; 46.1 µM
EXPERIMENTAL_ENDPOINT: cell viability (%)

                               input_smiles  experimental_endpoint  test_result
0      O=C(O)c1nn(Cc2ccc(Cl)cc2Cl)c2ccccc12         cell viability         84.2
1  CCOC\1=C(/C(=O)NC2=CC=C(OC3=C(Cl)C(=NC=C3)N)C(=C2)F)C(=O)N(\C=C1)C4=CC=C(F)C=C4         cell viability         30.9
2    COC1=C(CC=C(C)C)C2=C(\C=C/C(=O)O2)C=C1         cell viability         54.7

* * *

# Test system: P12-Ichikawa
# ASSAY: cell viability relative to DMSO control; higher = less cytotoxic
# CONDITIONS: HPLM + 10% dialyzed FBS; 48 h; 15.4 µM
EXPERIMENTAL_ENDPOINT: cell viability (%)

In [3]: df
Out[3]:
                               input_smiles  test_result
0  N[C@@H](Cc1cc(I)c(Oc2cc(I)c(O)c(I)c2)c(I)c1)C(=O)O          101
1  CC(=O)[C@H]1CC[C@H]2[C@@H]3C/C=C4/C[C@@H](O)CC[C@]4(C)[C@H]3CC[C@]12C          114
2      O=C(O)c1nn(Cc2ccc(Cl)cc2Cl)c2ccccc12         79.2
3   O=C(O)CCc1ccc(NCc2cccc(Oc3ccccc3)c2)cc1          119
4     CC(=O)OCC(CCn1cnc2cnc(N)nc21)COC(C)=O          110
5  O=C1N\N=C(\C[C@@H]2CCN(C2)C(=O)C3CC3)N1C4=CC=C(C=C4)C5=CC=C6OC=CC6=C5         83.2
6  Cc1nc(N)sc1-c1ccnc(Nc2ccc(N3CCOCC3)cc2)n1           25
7  COc1cc([C@@H]2c3cc4c(cc3[C@@H](O[C@@H]3O[C@@H]5CO[C@@H](C)O[C@H]5[C@H](O)[C@H]3O)[C@H]3COC(=O)[C@H]23)OCO4)cc(OC)c1O         1.85
8  OCCN1CCN(CCCN2c3ccccc3Sc3ccc(C(F)(F)F)cc32)CC1         18.2

* * *

# Test system: SEM cells
# ASSAY: cell viability relative to DMSO control; higher = less cytotoxic
# CONDITIONS: RPMI 5 mM glucose + 10% FBS; 48 h; 0.19 µM
Measured cell viability values are reported for all entries that follow.
EXPERIMENTAL_ENDPOINT: cell viability (%)

In [3]: df
Out[3]:
                                   compound  test_result
0  Clc1ccc(C(Cn2ccnc2)OCc2ccc(Sc3ccccc3)cc2)c(Cl)c1 (stereo not given)          106
1    COC1=C(CC=C(C)C)C2=C(\C=C/C(=O)O2)C=C1          112
2  NCC/1=C/NC(=S)N1[C@H]2CCC3=C(F)C=C(F)C=C3C2          114
3  Cc1ccccc1C(C(=O)NC1CCCC1)N(C(=O)Cn1cnc2ccccc21)c1cccc(F)c1 (stereo not given)          122
4  COc1cc([C@@H]2c3cc4c(cc3[C@H](O)[C@H]3COC(=O)[C@H]23)OCO4)cc(OC)c1OC         10.5
5  CNC(=O)c1cc(COc2nnc(Nc3ccc(Cl)cc3)c3ccoc23)ccn1          127
6        O=C(N[C@H]1CN2CCC1CC2)c1ccc(Cl)cc1         95.9
7  CN1C(=O)\C(=C/C2=C1N=C(NC3CCOCC3)N=C2)OC4=C(F)C=C(F)C=C4          112
8              C\C1=N\N(C(=O)C1)C2=CC=CC=C2          117
9  NC(=O)[C@@H](CCC(F)(F)F)N(Cc1ccc(-c2ncon2)cc1F)[S+](=O)([O-])c1ccc(Cl)cc1         92.9

* * *

# System: SEM cells
# ASSAY: cell viability relative to DMSO control; higher = less cytotoxic
# CONDITIONS: HPLM + 10% dialyzed FBS; 48 h; 0.00702 µM
Measured cell viability values are reported for all entries that follow.

COMPOUND	cell viability / %
CC1(C)CCC(=C(\C1)C2=CC=C(Cl)C=C2)/CN3CCN(CC3)C4=CC(=C(C=C4)C(=O)N[S+]([O-])(=O)C5=CC=C(NCC6CCOCC6)C(=C5)[N+]([O-])=O)OC7=CN=C8[NH]C=CC8=C7	99.3
N[S+](=O)([O-])c1cc2c(cc1Cl)NCN[S+]2(=O)[O-]	101
N[C@@H](Cc1ccc(N(CCCl)CCCl)cc1)C(=O)O	125
COc1ccc(-c2cc3c(C)nc(N)nc3n([C@H]3CC[C@H](OCCO)CC3)c2=O)cn1	84.6
O=C(O)c1nn(Cc2ccc(Cl)cc2Cl)c2ccccc12	95.5
CCOC(=O)c1c(/C(C#N)=C\N)c2ccc(Cl)c(Cl)c2n1C	85.2
O=C1N\N=C(\C[C@@H]2CCN(C2)C(=O)C3CC3)N1C4=CC=C(C=C4)C5=CC=C6OC=CC6=C5	80.2
O=P1(NCCCl)OCCCN1CCCl (centres undefined)	92.8
O=C(O)C(=O)Nc1cccc(-c2nnn[nH]2)c1	108

* * *

# Tested on: P12-Ichikawa
# ASSAY: cell viability relative to DMSO control; higher = less cytotoxic
# CONDITIONS: HPLM + 10% dialyzed FBS; 48 h; 0.00702 µM
Measured cell viability values are reported for all entries that follow.
EXPERIMENTAL_ENDPOINT: cell viability (%)

In [3]: df
Out[3]:
                                   compound        target  units  test_result
0  O=C(/C=C/c1cccnc1)NCCCCC1CCN(C(=O)c2ccccc2)CC1  P12-Ichikawa      %         15.1
1  CCCC[N+]1(C)[C@@H]2CC(OC(=O)[C@H](CO)c3ccccc3)C[C@H]1[C@@H]1O[C@@H]12 (some centres undefined)  P12-Ichikawa      %          123
2  O=P1(NCCCl)OCCCN1CCCl (centres undefined)  P12-Ichikawa      %         88.4
3  CON(C)C(=O)N1\N=C(/S[C@]1(CCCN)C2=CC=CC=C2)C3=CC(=CC=C3F)F  P12-Ichikawa      %         12.4

* * *

# Test system: P12-Ichikawa
# ASSAY: cell viability relative to DMSO control; higher = less cytotoxic
# CONDITIONS: RPMI 5 mM glucose + 10% FBS; 48 h; 0.569 µM
Measured cell viability values are reported for all entries that follow.
EXPERIMENTAL_ENDPOINT: cell viability

MOLECULE	TEST_RESULT
Oc1ccc(C2CNCCc3c2cc(O)c(O)c3Cl)cc1 (configuration not stated)	90.3%
O=P1(NCCCl)OCCCN1CCCl (configuration not stated)	87.9%
CO[C@H]1C[C@H]2OC[C@@]2(OC(C)=O)[C@H]3[C@H](OC(=O)C4=CC=CC=C4)[C@]5(O)C[C@H](OC(=O)[C@H](O)[C@@H](NC(=O)OC(C)(C)C)C6=CC=CC=C6)/C(=C(/[C@@H](OC)C(=O)[C@]13C)C5(C)C)C	15.2%
CCc1nc(C(N)=O)c(Nc2ccc(N3CCC(N4CCN(C)CC4)CC3)c(OC)c2)nc1NC1CCOCC1	98.7%
CN(C)c1ccccc1CN1CCCN(Cc2ccccc2N(C)C)C1c1ccncc1	108%
NC/1=N/C(=O)C2=C([NH]C=C2CCC3=CC=C(C=C3)C(=O)N[C@@H](CCC(O)=O)C(O)=O)N1	96.9%
OCCN1CCN(CCCN2c3ccccc3Sc3ccc(C(F)(F)F)cc32)CC1	87.8%
O=C(O)CCc1ccc(NCc2cccc(Oc3ccccc3)c2)cc1	109%
O=C(Nc1ccncc1)C(=O)c1cn(Cc2ccc(Cl)cc2)c2ccccc12	16.5%
NNC(=O)c1ccncc1	122%
CC[C@@H](C)[C@H](NC(=O)[C@H](CC1CCCCC1)NC(=O)c1ccno1)C(=O)N1CCC2(CCc3ccccc32)CC1	64.5%
Cc1ccc([S+](=O)([O-])NC(=O)NN2CC3CCCC3C2)cc1 (configuration not stated)	97.7%
CC[P](CC)(CC)=[Au][S][C@@H]1O[C@H](COC(C)=O)[C@@H](OC(C)=O)[C@H](OC(C)=O)[C@H]1OC(C)=O	109%
CCNC(=O)c1noc(-c2cc(C(C)C)c(O)cc2O)c1-c1ccc(CN2CCOCC2)cc1	43.5%
COc1cc([C@@H]2c3cc4c(cc3[C@@H](O)C3COC(=O)C32)OCO4)cc(OC)c1O (some centres not stated)	14.4%
NC(=O)[C@@H](CCC(F)(F)F)N(Cc1ccc(-c2ncon2)cc1F)[S+](=O)([O-])c1ccc(Cl)cc1	86.3%
Cc1n[nH]c(C)c1Cc1sc2c(c1C(=O)N1C[C@H](O)CO1)c(=O)n(C)c(=O)n2CC(C)C	95.6%
